Target: Recombinant human mPGES-1 (Homo sapiens)
Sequence (O14684 1-152): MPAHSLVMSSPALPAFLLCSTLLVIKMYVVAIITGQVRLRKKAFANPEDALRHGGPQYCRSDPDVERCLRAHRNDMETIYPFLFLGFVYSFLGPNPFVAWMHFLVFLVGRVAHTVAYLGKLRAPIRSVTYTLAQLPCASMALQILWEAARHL
Assay: In-vitro mPGES-1 enzyme inhibition assay (PGE2 formation from PGH2, HTRF detection)
Format: biochemical
Conditions: 10 μM test compound; recombinant human mPGES-1 microsomal fraction; read-out: Percentage inhibition at 10 μM
Would you kindly list inhibition at 10 µM for each of these compounds?

### Prompt Return reported inhibition at 10 µM; argument: `Cc1cccc(Cl)c1Nc1nc2cc(C(=O)Nc3cc(C(F)F)ccc3F)c3c(c2[nH]1)CC(C)(C)O3`
### Response 98.6%

### Prompt Return reported inhibition at 10 µM; argument: `CC1(C)Cc2c(c(C(=O)NCc3ccccc3C(F)(F)F)cc3nc(Nc4c(Cl)cncc4Cl)[nH]c23)O1`
### Response 99.6%

### Prompt Return reported inhibition at 10 µM; argument: `CC1(C)Cc2c(c(C(=O)NCCF)cc3nc(Nc4c(Cl)cccc4Cl)[nH]c23)O1`
### Response 96.6%

### Prompt Return reported inhibition at 10 µM; argument: `Cn1c(Nc2c(Cl)cncc2Cl)nc2cc(C(=O)Nc3ccc(F)c(C(F)(F)F)c3)c3c(c21)CC(C)(C)O3`
### Response 97.3%

### Prompt Return reported inhibition at 10 µM; argument: `CC1(C)Cc2c(c(C(=O)Nc3ncc(Cl)cc3F)cc3nc(Nc4c(F)cccc4Cl)[nH]c23)O1`
### Response 97.7%

### Prompt Return reported inhibition at 10 µM; argument: `COc1cc(OC)cc(-c2noc(-c3cc4nc(Nc5c(Cl)cccc5Cl)[nH]c4c4c3OC(C)(C)C4)n2)c1`
### Response 80.8%

### Prompt Return reported inhibition at 10 µM; argument: `CC(C)c1noc(-c2cc3nc(Nc4c(F)cccc4Cl)[nH]c3c3c2OC(C)(C)C3)n1`
### Response 92.2%

---

Target: Recombinant human mPGES-1 (Homo sapiens)
Experiment: In-vitro mPGES-1 enzyme inhibition assay (PGE2 formation from PGH2, HTRF detection)
Format: biochemical
Details: 10 μM test compound; recombinant human mPGES-1 microsomal fraction; read-out: Percentage inhibition at 10 μM
Description: In-Vitro Protocol for Screening of mPGES-1 Inhibitors: mPGES-1 (microsomal prostaglandin E synthase-1) is a microsomal enzyme that converts endoperoxide substrate PGH2 (prostaglandin H2) to product PGE2 (prostaglandin E2) by isomerization in the presence of reduced glutathione (GSH). mPGES-1 inhibitors were screened by assessing their ability to inhibit formation of PGE2 from PGH2 in presence of mPGES-1 using anti-PGE2 antibody based detection method. […]
Would you kindly list inhibition at 10 µM for each of these compounds?
Just the number in %, nothing appended.

### Prompt Return reported inhibition at 10 µM; argument: CC1(C)Cc2c(c(C(=O)NC3(c4ccccc4C(F)(F)F)CC3)cc3nc(Nc4c(F)cccc4Cl)[nH]c23)O1 [Example-118]
### Response 98.7

### Prompt Return reported inhibition at 10 µM; argument: Cc1cccc(Cl)c1Nc1nc2cc(C(=O)Nc3cc(F)c(F)cc3F)c3c(c2[nH]1)CC(C)(C)O3 [Example-192]
### Response 96.5

### Prompt Return reported inhibition at 10 µM; argument: CC1(C)Cc2c(c(C(=O)Nc3ccc(C(F)(F)F)cc3)cc3nc(Nc4ccc(F)cc4Cl)[nH]c23)O1 [Example-86]
### Response 98.7

### Prompt Return reported inhibition at 10 µM; argument: CC1(C)Cc2c(c(C(=O)Nc3cccc(C(F)(F)F)c3)cc3nc(NC(=O)c4c(F)cccc4Cl)[nH]c23)O1 [Example-143]
### Response 39.2

### Prompt Return reported inhibition at 10 µM; argument: CC1(C)Cc2c(c(C(=O)N3CCOCC3)cc3nc(Nc4c(Cl)cncc4Cl)[nH]c23)O1 [Example-20]
### Response 44.9

### Prompt Return reported inhibition at 10 µM; argument: CC1(C)Cc2c(c(C(=O)Nc3ccc(Br)cc3)cc3nc(Nc4c(Cl)cncc4Cl)[nH]c23)O1 [Example-8]
### Response 90.1

### Prompt Return reported inhibition at 10 µM; argument: CC1(C)Cc2c(c(C(=O)Nc3ccc(C(F)(F)F)cc3)cc3nc(Nc4ccccc4Cl)[nH]c23)O1 [Example-89]
### Response 97.1

### Prompt Return reported inhibition at 10 µM; argument: CC1(C)Cc2c(c(C(=O)NN3CCCC3)cc3nc(Nc4c(Cl)cccc4Cl)[nH]c23)O1 [Example-58]
### Response 95.4

### Prompt Return reported inhibition at 10 µM; argument: Cc1cc2c(o1)c(C(=O)Nc1ccc(F)cc1)cc1nc(Nc3c(Cl)cncc3Cl)[nH]c12 [Example-36]
### Response 99.3

### Prompt Return reported inhibition at 10 µM; argument: CC1(C)Cc2c(c(C(=O)Nc3ccc(F)cc3C#N)cc3nc(Nc4c(F)cccc4Cl)[nH]c23)O1 [Example-105]
### Response 95.5

### Prompt Return reported inhibition at 10 µM; argument: Cc1ccc(Nc2nc3cc(C(=O)Nc4ccc(C(F)(F)F)cc4)c4c(c3[nH]2)CC(C)(C)O4)c(C)n1 [Example-103]
### Response 25.8

### Prompt Return reported inhibition at 10 µM; argument: Cc1cccc(Cl)c1Nc1nc2cc(C(=O)Nc3ccc(C(F)(F)F)cc3)c3c(c2[nH]1)CC(C)(C)O3 [Example-108]
### Response 96.3

### Prompt Return reported inhibition at 10 µM; argument: Cc1nc2c(o1)c(C(=O)NCC1CCCCC1)cc1nc(Nc3c(Cl)cccc3Cl)[nH]c12 [Example-183]
### Response 93.1

### Prompt Return reported inhibition at 10 µM; argument: CC1(C)Cc2c(c(C(=O)Nc3cc(F)c(F)cc3F)cc3nc(Nc4c(Cl)cncc4Cl)[nH]c23)O1 [Example-199]
### Response 100

### Prompt Return reported inhibition at 10 µM; argument: CC(C)CCNC(=O)c1cc2nc(Nc3c(Cl)cccc3Cl)[nH]c2c2c1OC(C)(C)C2 [Example-46]
### Response 100
